Experimental target: human EAAT1 (Homo sapiens, UniProt P43003)
Construct: expressed in transfected cells
Sequence (P43003 whole entry): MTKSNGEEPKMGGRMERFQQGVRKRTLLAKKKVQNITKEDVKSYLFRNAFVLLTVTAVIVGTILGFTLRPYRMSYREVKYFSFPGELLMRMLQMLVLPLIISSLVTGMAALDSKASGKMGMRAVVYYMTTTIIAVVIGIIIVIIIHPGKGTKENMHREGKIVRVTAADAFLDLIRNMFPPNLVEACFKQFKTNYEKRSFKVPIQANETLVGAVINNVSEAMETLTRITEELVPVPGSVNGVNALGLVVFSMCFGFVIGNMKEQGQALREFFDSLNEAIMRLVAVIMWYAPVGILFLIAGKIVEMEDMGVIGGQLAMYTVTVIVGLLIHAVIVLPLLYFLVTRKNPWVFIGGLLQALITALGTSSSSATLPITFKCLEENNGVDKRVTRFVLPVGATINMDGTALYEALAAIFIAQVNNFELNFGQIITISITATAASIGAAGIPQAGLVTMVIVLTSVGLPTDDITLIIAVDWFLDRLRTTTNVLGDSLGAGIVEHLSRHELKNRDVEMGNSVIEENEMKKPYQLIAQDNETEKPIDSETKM
Test protocol: [3H]-D-Aspartic acid uptake assay, HEK293 cells stably expressing EAAT1
Type: cell-based
Test parameters: HEK293 cells stably expressing human EAAT1; n=3-7; read-out: Inhibition of [3H]-D-Asp uptake, EAAT1, IC50
Value type: IC50 (µM)

I = CC1C(C#N)=C(N)OC2=C1C(=O)CC(c1cccc3ccccc13)C2 (centres unmarked) [1w]
II = COc1ccc(C2C(C#N)=C(N)OC3=C2C(=O)CC(c2ccccc2)C3)cc1 (centres unmarked) [1c]
III = COc1ccc(C2C(C#N)=C(N)OC3=C2C(=O)CC(c2ccc(OC)c(OC)c2)C3)cc1 (centres unmarked) [1n]
[ask] Give the order of the entries above, sorted from least to greatest IC50. Put the labels in the requested order and write them down.
[reply] I, II, III
(I: 0.58 µM, II: 2.3 µM, III: 11 µM)

====

Experimental target: human EAAT2 (Homo sapiens, UniProt P43004)
Test protocol: [3H]-D-Aspartic acid uptake assay, HEK293 cells stably expressing EAAT2
Test parameters: n=3-7, read-out: Inhibition of [3H]-D-Asp uptake, EAAT2, IC50
Value type: IC50

CC1C(C#N)=C(N)OC2=C1C(=O)CC(c1cccc3ccccc13)C2 (centres unmarked) : > 300 µM

Attention now turns to another entry.
[ask] Fill in the blank: the reported IC50 of COc1ccc(C2C(C#N)=C(N)OC3=C2C(=O)CC(c2ccc(OC)c(OC)c2)C3)cc1 (centres unmarked) is ____.
[reply] > 300 µM

====

Experimental target: human EAAT1 (Homo sapiens, UniProt P43003)
Construct: expressed in transfected cells
Test protocol: [3H]-D-Aspartic acid uptake assay, HEK293 cells stably expressing EAAT1
Format: cell-based
Value type: IC50

[ask] Fill in the blank: the reported IC50 of COc1ccc(C2C(C#N)=C(N)OC3=C2C(=O)CC(c2ccco2)C3)cc1OC(=O)N1CCOCC1 (stereo not shown) is ____.
[reply] ~100 µM

All figures here come from patent US20130345420A9.
